- EXPERIMENTAL TARGET: Human BCL-XL protein (N-terminal HiBiT tagged BCL-XL expressed in HT1080 cells) (Homo sapiens, UniProt Q07817)
- Construct: expressed in transfected cells; host or cells: HT-1080 (ATCC CCL-121), stably transduced with lentivirus pLV-UBC-N-HiBiT-BCL-XL-PGK-puro and selected with puromycin
- Sequence (Q07817 whole entry): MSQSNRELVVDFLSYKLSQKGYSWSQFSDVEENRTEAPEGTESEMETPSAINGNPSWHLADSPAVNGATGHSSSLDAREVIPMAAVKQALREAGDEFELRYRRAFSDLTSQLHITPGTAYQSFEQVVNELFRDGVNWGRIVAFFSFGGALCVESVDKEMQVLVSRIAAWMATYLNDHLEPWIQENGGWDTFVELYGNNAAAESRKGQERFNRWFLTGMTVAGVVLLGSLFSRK
- ASSAY NOTES: HiBiT Based Degradation Assay
- Type: cell-based
- CONDITION SUMMARY: bottom of BCL-XL degradation curve (remaining HiBiT-BCL-XL signal vs DMSO control), HT1080 cells, 24 hours incubation
OBSERVABLE: Ymin (24 h)

# MOLECULE, OBSERVABLE, ENDPOINT RESULT
records = [
    ("COc1c(NC(=O)CN2CCC(CCCOc3cccc(-c4ccc(N5CCc6cccc(C(=O)Nc7nc8ccccc8s7)c6C5)nc4C(=O)O)c3F)CC2)ccc2c(C3CCC(=O)NC3=O)nn(C)c12 (stereo not drawn)", "Ymin (24 h)", "B (30% ≤ Ymin < 50%)"),
    ("Cn1nc(C2CCC(=O)NC2=O)c2ccc(NC(=O)CN3CCC4(CC3)CC(COc3cccc(-c5ccc(N6CCc7cccc(C(=O)Nc8nc9ccccc9s8)c7C6)nc5C(=O)O)c3C(F)(F)F)C4)c(F)c21 (stereo not drawn)", "Ymin (24 h)", "B (30% ≤ Ymin < 50%)"),
    ("Cn1nc(C2CCC(=O)NC2=O)c2ccc(NC(=O)CN3CCN(CCCO[C@H]4CC[C@H](c5ccc(N6CCc7cccc(C(=O)Nc8nc9ccccc9s8)c7C6)nc5C(=O)O)CC4)CC3)cc21 (stereo partly drawn) [Compound 2001a]", "Ymin (24 h)", "B (30% ≤ Ymin < 50%)"),
]

====

- EXPERIMENTAL TARGET: Human BCL-XL protein (N-terminal HiBiT tagged BCL-XL expressed in HT1080 cells) (Homo sapiens, UniProt Q07817)
- Construct: expressed in transfected cells; host or cells: HT-1080 (ATCC CCL-121), stably transduced with lentivirus pLV-UBC-N-HiBiT-BCL-XL-PGK-puro and selected with puromycin
- ASSAY NOTES: HiBiT Based Degradation Assay
- Format: cell-based
- CONDITION SUMMARY: bottom of BCL-XL degradation curve (remaining HiBiT-BCL-XL signal vs DMSO control), HT1080 cells, 24 hours incubation
OBSERVABLE: Ymin (24 h)

For orientation, consider the following solved cases.
# COMPOUND, ENDPOINT RESULT
rows = [
    ("C[C@H]1C[C@H](CCCOc2ccc(-c3ccc(N4CCc5cccc(C(=O)Nc6nc7ccccc7s6)c5C4)nc3C(=O)O)c(C(F)(F)F)c2)CCN1CC(=O)Nc1ccc2c(C3CCC(=O)NC3=O)nn(C)c2c1 (some centres unmarked) [Compound 209b]", "B (30% ≤ Ymin < 50%)"),
    ("COc1c(NC(=O)CN2CCC3(CC2)CC(COc2cccc(-c4ccc(N5CCc6cccc(C(=O)Nc7nc8ccccc8s7)c6C5)nc4C(=O)O)c2C)C3)ccc2c(C3CCC(=O)NC3=O)nn(C)c12 (centres unmarked) [Compound 127]", "A (Ymin < 30%)"),
    ("Cc1c(OC2CC3(CCN(CC(=O)Nc4ccc5c(C6CCC(=O)NC6=O)nn(C)c5c4)CC3)C2)cccc1-c1ccc(N2CCc3cccc(C(=O)Nc4nc5ccccc5s4)c3C2)nc1C(=O)O (centres unmarked) [Compound 113]", "B (30% ≤ Ymin < 50%)"),
    ("Cc1cc(OC2CC3(CCN(CC(=O)Nc4ccc5c(C6CCC(=O)NC6=O)nn(C)c5c4)CC3)C2)ccc1-c1ccc(N2CCc3ccnc(C(=O)Nc4nc5ccccc5s4)c3C2)nc1C(=O)O (centres unmarked) [Compound 167]", "A (Ymin < 30%)"),
]

Field: next compound
Task: Entry Cc1cc2c(C3CCC(=O)NC3=O)nn(C)c2cc1NC(=O)CN1CCC2(CC1)CC(COc1cccc(-c3ccc(N4CCc5cccc(C(=O)Nc6nc7ccccc7s6)c5C4)nc3C(=O)O)c1C)C2 (centres unmarked) [Compound 118] has what Ymin (24 h)?
Result: B (30% ≤ Ymin < 50%)

All figures here come from patent US20260216170A1.
